Molecular target: Adrenergic receptor alpha-1 (Rattus norvegicus, UniProt P15823+P23944+P43140)
Sequence (P15823 whole entry): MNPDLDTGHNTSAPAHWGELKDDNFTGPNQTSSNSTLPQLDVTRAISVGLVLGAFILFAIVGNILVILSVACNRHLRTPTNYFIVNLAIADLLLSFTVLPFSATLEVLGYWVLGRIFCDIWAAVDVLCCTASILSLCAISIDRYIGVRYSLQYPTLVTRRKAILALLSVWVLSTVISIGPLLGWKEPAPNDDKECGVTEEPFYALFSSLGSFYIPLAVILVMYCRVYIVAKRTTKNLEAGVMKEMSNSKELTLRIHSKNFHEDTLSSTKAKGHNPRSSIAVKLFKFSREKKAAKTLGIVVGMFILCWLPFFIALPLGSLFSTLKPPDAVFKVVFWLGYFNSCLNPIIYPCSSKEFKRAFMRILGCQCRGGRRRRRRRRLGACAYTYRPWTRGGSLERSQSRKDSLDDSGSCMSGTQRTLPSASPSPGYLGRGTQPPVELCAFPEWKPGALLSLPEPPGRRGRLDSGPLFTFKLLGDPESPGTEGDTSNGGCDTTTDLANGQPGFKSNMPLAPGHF
Sequence (P23944 whole entry): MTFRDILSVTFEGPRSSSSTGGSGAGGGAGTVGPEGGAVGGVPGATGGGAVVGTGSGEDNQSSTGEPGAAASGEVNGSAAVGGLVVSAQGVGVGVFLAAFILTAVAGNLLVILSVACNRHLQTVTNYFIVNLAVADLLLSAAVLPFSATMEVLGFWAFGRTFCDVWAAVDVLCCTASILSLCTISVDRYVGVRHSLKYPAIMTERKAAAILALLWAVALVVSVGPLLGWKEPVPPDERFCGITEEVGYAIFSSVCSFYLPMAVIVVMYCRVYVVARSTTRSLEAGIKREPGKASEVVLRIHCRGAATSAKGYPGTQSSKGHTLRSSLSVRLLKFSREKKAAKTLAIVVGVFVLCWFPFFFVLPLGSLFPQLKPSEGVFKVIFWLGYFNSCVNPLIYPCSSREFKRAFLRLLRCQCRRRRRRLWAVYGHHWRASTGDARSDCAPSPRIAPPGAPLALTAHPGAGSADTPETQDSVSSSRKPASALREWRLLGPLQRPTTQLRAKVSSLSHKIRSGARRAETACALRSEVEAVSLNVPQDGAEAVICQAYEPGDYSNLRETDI
Sequence (P43140 whole entry): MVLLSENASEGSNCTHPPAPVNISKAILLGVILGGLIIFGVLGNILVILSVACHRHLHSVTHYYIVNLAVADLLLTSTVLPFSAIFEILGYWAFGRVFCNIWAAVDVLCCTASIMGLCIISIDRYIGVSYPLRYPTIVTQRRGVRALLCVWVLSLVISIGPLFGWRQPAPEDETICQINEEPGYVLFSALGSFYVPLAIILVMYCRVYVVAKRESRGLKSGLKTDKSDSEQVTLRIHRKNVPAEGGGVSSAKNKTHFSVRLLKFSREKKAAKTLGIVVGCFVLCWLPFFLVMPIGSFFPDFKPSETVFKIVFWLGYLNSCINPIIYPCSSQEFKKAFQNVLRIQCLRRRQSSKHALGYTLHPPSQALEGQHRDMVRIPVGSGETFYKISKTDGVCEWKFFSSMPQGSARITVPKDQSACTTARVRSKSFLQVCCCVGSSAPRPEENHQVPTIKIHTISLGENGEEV
Assay: Binding affinity by its ability to displace [3H]prazosin radioligand from Alpha-1 adrenergic receptor on rat cerebral cortex
Type: tissue-based
parameter measured: Ki (µM)

O=c1ccc(-n2ccnc2)nn1CCCN1CCN(c2ccccc2Cl)CC1
0.0483

I = COc1ccccc1N1CCN(CCCn2nc(-n3cnc4ccccc43)ccc2=O)CC1
II = O=c1ccc(-n2cnc3ccccc32)nn1CCCN1CCN(c2ccccc2Cl)CC1
III = COc1ccccc1N1CCN(CCCn2nc(-n3ccnc3)ccc2=O)CC1
IV = COc1ccccc1N1CCN(CCCCn2nc(-n3cnc4ccccc43)ccc2=O)CC1
Query block: Rank by Ki (largest to smallest). Kindly provide the labels arranged according to the requested ordering.
Result block: III, II, I, IV
(III: 0.1154 µM, II: 0.0152 µM, I: 0.0065 µM, IV: 0.0011 µM)
